- System: serum lipids
- EXPERIMENT DESCRIPTION: Lipid-lowering action in normolipemic rats
- Format: in vivo
- MEASUREMENT CONDITIONS: Rattus norvegicus, 72 h; 4 × 100 mg/kg oral over 3 days, male Wistar rats, vs controls, X ± Sx; read-out: % Lowering TG (triglycerides)
RECORDED METRIC: inhibition in vivo at 100 mg/kg (%)

{"MOLECULE": "CCCOC(=O)c1ccc(OCC(O)COc2ccc(Cl)cc2)cc1 (stereo not drawn)", "REPORTED RESULT": 74.2}
{"MOLECULE": "COCCOC(=O)C=Cc1ccc(OCC(O)COc2ccc(C(C)(C)C)cc2)cc1 (stereo not drawn)", "REPORTED RESULT": 77}
{"MOLECULE": "O=C(C=Cc1ccc(OCC(O)COc2ccc(Cl)cc2)cc1)NO (stereo not drawn)", "REPORTED RESULT": 64.2}
{"MOLECULE": "CC(C)OC(=O)c1ccc(OCC(O)CNc2ccc(Cl)cc2)cc1 (stereo not drawn)", "REPORTED RESULT": 64.6}
{"MOLECULE": "CCCOC(=O)c1ccc(OCC(O)COc2ccc(C(C)(C)C)cc2)cc1 (stereo not drawn)", "REPORTED RESULT": 68.3}
{"MOLECULE": "O=C(C=Cc1ccc(OCC(O)COc2ccc(Cl)cc2)cc1)OCCO (stereo not drawn)", "REPORTED RESULT": 69.5}
{"MOLECULE": "COCCOC(=O)c1ccc(OCC(O)COc2ccc(Cl)cc2)cc1 (stereo not drawn)", "REPORTED RESULT": 75.8}
{"MOLECULE": "COC(=O)C=Cc1ccc(OCC(O)CNc2ccc(Cl)cc2)cc1 (stereo not drawn)", "REPORTED RESULT": 62.3}
{"MOLECULE": "O=C(NO)c1ccc(OCC(O)COc2ccc(Cl)cc2)cc1 (stereo not drawn)", "REPORTED RESULT": 53.2}
